Molecular target: human B1R receptor (Homo sapiens)
Construct: host or cells: CHO K1 cells (Chinese hamster ovary), stably transfected
Sequence (P46663 whole entry): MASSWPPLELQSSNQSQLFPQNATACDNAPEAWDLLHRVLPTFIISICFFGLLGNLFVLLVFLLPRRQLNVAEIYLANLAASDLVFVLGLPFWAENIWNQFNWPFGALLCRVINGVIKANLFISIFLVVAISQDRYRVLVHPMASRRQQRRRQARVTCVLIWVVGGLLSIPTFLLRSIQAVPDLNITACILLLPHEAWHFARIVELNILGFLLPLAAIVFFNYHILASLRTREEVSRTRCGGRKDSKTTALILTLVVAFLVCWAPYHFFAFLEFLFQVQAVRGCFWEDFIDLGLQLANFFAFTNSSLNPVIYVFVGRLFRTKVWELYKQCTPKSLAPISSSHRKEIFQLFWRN
Assay: Functional study on the bradykinin receptor 1 (B1R), FLIPR Ca2+ assay, hB1R cells
Format: cell-based
Details: CHO-K1, test substance 10 μM, agonist Lys-Des-Arg9-bradykinin 0.5 nM, % inhibition compared with the maximum achievable inhibition, read-out: B1R Antagonism, human [10 μM] % Inhibition
Where a name gives a salt, the structure may show the parent alone.
reported_endpoint: inhibition at 10 µM (%)
Unit % implied. Number only.

Query string: Tell me its inhibition at 10 µM on human B1R receptor (Homo sapiens): COc1cc(C)c(S(=O)(=O)N2CCCC2COCC(=O)N2CCC(c3cccnc3)C2)c(C)c1 (stereo not drawn) [Example 272]
Result string: 97.1

Query string: Tell me its inhibition at 10 µM on human B1R receptor (Homo sapiens): COc1cc(C)c(S(=O)(=O)N2Cc3ccccc3CC2COCC(=O)N2CCC(N3CCN(C)CC3)CC2)c(C)c1C (stereo not drawn) [Example 275]
Result string: 102

Query string: Tell me its inhibition at 10 µM on human B1R receptor (Homo sapiens): COc1cc(C)c(S(=O)(=O)N2CCCCC2COCC(=O)N2CCC(Cc3cccnc3)C2)c(C)c1 (stereo not drawn) [Example 208]
Result string: 105

Query string: Tell me its inhibition at 10 µM on human B1R receptor (Homo sapiens): COc1cccc(N2CCN(C(=O)COCC3CCCCN3S(=O)(=O)c3c(Cl)cccc3Cl)CC2)c1 (stereo not drawn) [Example 317]
Result string: 92.2

Query string: Tell me its inhibition at 10 µM on human B1R receptor (Homo sapiens): COc1cc(C)c(S(=O)(=O)N2CCCC[C@H]2COCC(=O)N2CCN(C3CCN(C)CC3)CC2)c(C)c1 [Example 167]
Result string: 102

Query string: Tell me its inhibition at 10 µM on human B1R receptor (Homo sapiens): COc1ccc(S(=O)(=O)N2CCCCC2CCOCC(=O)N2CCN(CCc3ccccc3)CC2)cc1 (stereo not drawn) [Example 91]
Result string: 48.8

Query string: Tell me its inhibition at 10 µM on human B1R receptor (Homo sapiens): COc1cc(C)c(S(=O)(=O)N2CCCCC2COCC(=O)N2CCC(N3CCn4ccnc4C3)CC2)c(C)c1 (stereo not drawn) [Example 144]
Result string: 101

Query string: Tell me its inhibition at 10 µM on human B1R receptor (Homo sapiens): Cc1cccc(CC2CCCN2C(=O)COCC2CCCCN2S(=O)(=O)c2c(Cl)cccc2Cl)n1 (stereo not drawn) [Example 458]
Result string: 103

Query string: Tell me its inhibition at 10 µM on human B1R receptor (Homo sapiens): O=C(COCC1CCCCN1S(=O)(=O)c1c(Cl)cccc1Cl)N1CCN(Cc2ccccc2F)CC1 (stereo not drawn) [Example 454]
Result string: 102

Query string: Tell me its inhibition at 10 µM on human B1R receptor (Homo sapiens): Cc1cc(C)c(S(=O)(=O)N2CCCCC2COCC(=O)N2CCC(N3CCN(C)CC3)CC2)c(C)c1 (stereo not drawn) [Example 231]
Result string: 102

Query string: Tell me its inhibition at 10 µM on human B1R receptor (Homo sapiens): CN1CCN(C2CCN(C(=O)COCC3CCCCN3S(=O)(=O)c3c(Cl)cccc3Cl)CC2)CC1 (stereo not drawn) [Example 278]
Result string: 104

Query string: Tell me its inhibition at 10 µM on human B1R receptor (Homo sapiens): COc1cc(C)c(S(=O)(=O)N2CCC[C@H]2COCC(=O)N2CCC(CCN3CCCC3)CC2)c(C)c1 [Example 190, hydrochloride]
Result string: 102

Query string: Tell me its inhibition at 10 µM on human B1R receptor (Homo sapiens): CN1CCC(N2CCN(C(=O)COCC3CCCCN3S(=O)(=O)c3c(Cl)nc4sccn34)CC2)CC1 (stereo not drawn) [Example 129]
Result string: 0.03

Query string: Tell me its inhibition at 10 µM on human B1R receptor (Homo sapiens): O=C(COCC1CCCN1S(=O)(=O)c1c(Cl)cc(Cl)cc1Cl)N1CCC(N2CCCC2)CC1 (stereo not drawn) [Example 296]
Result string: 106

Query string: Tell me its inhibition at 10 µM on human B1R receptor (Homo sapiens): COc1cc(C)c(S(=O)(=O)N2CCCCC2COCC(=O)N2CCC(N3CCn4ncnc4C3)CC2)c(C)c1 (stereo not drawn) [Example 145]
Result string: 99.4

* * *

Biological target: B1R receptor of the rat (Rattus norvegicus, UniProt P97583)
Construct: host or cells: CHO K1 cells (Chinese hamster ovary), stably transfected
Assay: Functional study on the bradykinin receptor 1 (B1R), FLIPR Ca2+ assay, rB1R cells
Assay type: cell-based
Conditions: CHO-K1, test substance 10 μM, agonist Des-Arg9-bradykinin 100 nM, % inhibition compared with the maximum achievable inhibition, read-out: B1R Antagonism, rat [10 μM] % Inhibition
Text: The agonistic or antagonistic action of substances can be quantified on the bradykinin receptor 1 (B1R) of the species human and rat with ectopically expressing cell lines (CHO K1 cells) and with the aid of a Ca^2+-sensitive dye (Fluo-4) using a fluorescent imaging plate reader (FLIPR). […] The agonistic or antagonistic action of substances can be determined on the bradykinin receptor 1 (B1R) of the species human and rat using the following assay. […]
reported_endpoint: inhibition at 10 µM (%)
Unit % implied. Number only.

Query string: Tell me its inhibition at 10 µM on B1R receptor of the rat (Rattus norvegicus, UniProt P97583): COc1cc(C)c(S(=O)(=O)N2CCCCC2COCC(=O)N2CCC(COc3ccncc3)CC2)c(C)c1 (stereo not shown)
Result string: 102

Query string: Tell me its inhibition at 10 µM on B1R receptor of the rat (Rattus norvegicus, UniProt P97583): O=C(COCC1CCCN1S(=O)(=O)c1c(Cl)cccc1Cl)N1CCN(c2cccc(Cl)c2)CC1 (stereo not shown)
Result string: 102

Query string: Tell me its inhibition at 10 µM on B1R receptor of the rat (Rattus norvegicus, UniProt P97583): O=C(COCC1CCCCN1S(=O)(=O)c1c(Cl)cccc1Cl)N1CCN(Cc2ccc(Br)cc2)CC1 (stereo not shown)
Result string: 100

Query string: Tell me its inhibition at 10 µM on B1R receptor of the rat (Rattus norvegicus, UniProt P97583): CN(C)c1ccc(CNC(=O)COCC2CCCCN2S(=O)(=O)c2c(Cl)cc(Cl)cc2Cl)cc1 (stereo not shown)
Result string: 87.1

Query string: Tell me its inhibition at 10 µM on B1R receptor of the rat (Rattus norvegicus, UniProt P97583): COc1cc(C)c(S(=O)(=O)N2CCCCC2COCC(=O)N2CCN(Cc3ccc(Br)cc3)CC2)c(C)c1 (stereo not shown)
Result string: 101

Query string: Tell me its inhibition at 10 µM on B1R receptor of the rat (Rattus norvegicus, UniProt P97583): Cc1cc(C)c(S(=O)(=O)N2Cc3ccccc3CC2COCC(=O)NCc2cccc(N3CCN(C)CC3)c2)c(C)c1 (stereo not shown)
Result string: 47.7

Query string: Tell me its inhibition at 10 µM on B1R receptor of the rat (Rattus norvegicus, UniProt P97583): COc1cc(C)c(S(=O)(=O)N2CCCCC2COCC(=O)N2CCC(Oc3cccnc3)CC2)c(C)c1 (stereo not shown)
Result string: 96.8

* * *

Kindly state inhibition at 10 µM for each of the entries shown.
Target: B1R receptor of the rat (Rattus norvegicus)
Construct: host or cells: CHO K1 cells (Chinese hamster ovary), stably transfected
Sequence (P97583 1-337): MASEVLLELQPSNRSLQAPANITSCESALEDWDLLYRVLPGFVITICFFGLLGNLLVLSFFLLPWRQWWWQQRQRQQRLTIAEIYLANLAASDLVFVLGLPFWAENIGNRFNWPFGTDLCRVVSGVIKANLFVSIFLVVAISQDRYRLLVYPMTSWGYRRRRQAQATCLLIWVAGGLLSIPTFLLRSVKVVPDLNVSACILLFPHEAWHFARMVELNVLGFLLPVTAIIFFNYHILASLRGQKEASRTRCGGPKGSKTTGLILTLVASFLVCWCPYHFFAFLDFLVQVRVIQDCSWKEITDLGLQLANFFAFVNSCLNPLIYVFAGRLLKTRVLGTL
Experiment: Functional study on the bradykinin receptor 1 (B1R), FLIPR Ca2+ assay, rB1R cells
Assay type: cell-based
Settings: CHO-K1, test substance 10 μM, agonist Des-Arg9-bradykinin 100 nM, % inhibition compared with the maximum achievable inhibition, read-out: B1R Antagonism, rat [10 μM] % Inhibition
Unit % implied. Number only.

Query string: Give reported inhibition at 10 µM value for COc1ccc(CN2CCN(C(=O)COCC3CCCCN3S(=O)(=O)c3c(C)cc(OC)cc3C)CC2)cc1 (stereo not shown) [Example 386]
Result string: 97.9

Query string: Give reported inhibition at 10 µM value for COc1cc(C)c(S(=O)(=O)N2CCCCC2COCC(=O)Nc2ccccc2N2CCN(C)CC2)c(C)c1 (stereo not shown) [Example 431]
Result string: 96.2

Query string: Give reported inhibition at 10 µM value for COc1cc(C)c(S(=O)(=O)N2CCCC2COCC(=O)N2CCCCCC2c2ccc(N(C)C)cc2)c(C)c1 (stereo not shown) [Example 475]
Result string: 102

Query string: Give reported inhibition at 10 µM value for CCN(CCCNC(=O)COCC1CCCCN1S(=O)(=O)c1c(C)cc(OC)cc1C)c1ccccc1 (stereo not shown) [Example 424]
Result string: 97.6
